molecular target: Polyunsaturated fatty acid 5-lipoxygenase (Homo sapiens); assay: Inhibition of 5-lipoxygenase in A23187-stimulated human neutrophils assessed as inhibition of enzyme product formation by RP-HPLC analysis; details: read-out: IC50
Sequence (P09917 whole entry): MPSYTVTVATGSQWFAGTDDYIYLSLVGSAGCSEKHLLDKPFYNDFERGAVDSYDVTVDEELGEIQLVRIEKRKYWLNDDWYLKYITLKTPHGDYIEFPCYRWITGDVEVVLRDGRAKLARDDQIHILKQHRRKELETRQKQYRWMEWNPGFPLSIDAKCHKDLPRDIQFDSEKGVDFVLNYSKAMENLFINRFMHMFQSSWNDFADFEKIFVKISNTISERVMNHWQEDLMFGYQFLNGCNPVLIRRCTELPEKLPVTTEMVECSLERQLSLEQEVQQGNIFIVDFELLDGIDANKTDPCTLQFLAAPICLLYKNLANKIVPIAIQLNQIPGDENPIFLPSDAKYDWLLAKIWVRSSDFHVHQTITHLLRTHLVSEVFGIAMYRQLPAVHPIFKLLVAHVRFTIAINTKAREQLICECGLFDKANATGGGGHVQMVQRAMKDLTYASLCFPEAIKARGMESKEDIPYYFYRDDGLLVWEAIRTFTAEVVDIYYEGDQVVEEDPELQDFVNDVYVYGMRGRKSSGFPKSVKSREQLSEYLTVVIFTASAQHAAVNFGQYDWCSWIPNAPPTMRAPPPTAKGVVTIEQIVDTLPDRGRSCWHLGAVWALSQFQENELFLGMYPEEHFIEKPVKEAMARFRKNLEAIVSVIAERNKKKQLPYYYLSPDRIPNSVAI
experimental-readout: IC50 (nM)

1) Cc1ccc(S(=O)(=O)NC(=O)Cc2cn(-c3ccccc3)nc2-c2ccc(Cl)cc2)cc1 2500
2) O=C(Cc1cn(-c2ccccc2)nc1-c1ccc(Cl)cc1)NS(=O)(=O)c1ccc(Cl)cc1 2900
3) O=C(Cc1cn(-c2ccccc2)nc1-c1ccc(C#Cc2cccc(Cl)c2)cc1)NS(=O)(=O)c1ccc(Cl)cc1 2300
4) Cc1ccc(S(=O)(=O)NC(=O)Cc2cn(-c3ccccc3)nc2-c2ccc(-c3ccccc3)cc2)cc1 3500
5) Cc1ccc(S(=O)(=O)NC(=O)Cc2c(C)n(Cc3ccc(Cl)cc3)c3ccc(Br)cc23)cc1 1700
6) O=C(O)Cc1cn(-c2ccccc2)nc1-c1ccc(C#Cc2cccc(Cl)c2)cc1 3900
7) O=C(Cc1cn(-c2ccccc2)nc1-c1ccc(C#Cc2ccc(Cl)cc2)cc1)NS(=O)(=O)c1ccc(Cl)cc1 4700
8) Cc1c(CC(=O)NS(=O)(=O)c2ccc(Cl)cc2)c2cc(C#Cc3ccccc3)ccc2n1Cc1ccc(Cl)cc1 2000

----------
molecular target: Prostaglandin G/H synthase 1 (Ovis aries) (UniProt P05979); assay: Inhibition of ovine COX1 assessed as inhibition of 12-HHT formation preincubated at 10 uM for 5 mins before arachidonic acid addition by HPLC analysis
Calls of active or inactive are those of the source. No cut-off for these calls is given here.
experimental-readout: inhibition

molecule	tested-target	experimental-readout	value-reported
Cc1c(CC(=O)O)c2cc(C#Cc3ccccc3)ccc2n1Cc1ccc(Cl)cc1	Prostaglandin G/H synthase 1 (Ovis aries) (UniProt P05979)	inhibition	inactive
Cc1ccc(S(=O)(=O)NC(=O)Cc2cn(-c3ccccc3)nc2-c2ccc(Cl)cc2)cc1	Prostaglandin G/H synthase 1 (Ovis aries) (UniProt P05979)	inhibition	inactive
O=C(Cc1cn(-c2ccccc2)nc1-c1ccc(C#Cc2ccccc2)cc1)NS(=O)(=O)c1ccc(Cl)cc1	Prostaglandin G/H synthase 1 (Ovis aries) (UniProt P05979)	inhibition	inactive
CC(C)Cc1ccc(C(C)C(=O)NS(C)(=O)=O)cc1 (stereo not given)	Prostaglandin G/H synthase 1 (Ovis aries) (UniProt P05979)	inhibition	inactive
O=C(O)Cc1cn(-c2ccccc2)nc1-c1ccc(C#Cc2ccc(Cl)cc2)cc1	Prostaglandin G/H synthase 1 (Ovis aries) (UniProt P05979)	inhibition	inactive

----------
Target: Prostaglandin G/H synthase 1 (Ovis aries)
Sequence (whole entry): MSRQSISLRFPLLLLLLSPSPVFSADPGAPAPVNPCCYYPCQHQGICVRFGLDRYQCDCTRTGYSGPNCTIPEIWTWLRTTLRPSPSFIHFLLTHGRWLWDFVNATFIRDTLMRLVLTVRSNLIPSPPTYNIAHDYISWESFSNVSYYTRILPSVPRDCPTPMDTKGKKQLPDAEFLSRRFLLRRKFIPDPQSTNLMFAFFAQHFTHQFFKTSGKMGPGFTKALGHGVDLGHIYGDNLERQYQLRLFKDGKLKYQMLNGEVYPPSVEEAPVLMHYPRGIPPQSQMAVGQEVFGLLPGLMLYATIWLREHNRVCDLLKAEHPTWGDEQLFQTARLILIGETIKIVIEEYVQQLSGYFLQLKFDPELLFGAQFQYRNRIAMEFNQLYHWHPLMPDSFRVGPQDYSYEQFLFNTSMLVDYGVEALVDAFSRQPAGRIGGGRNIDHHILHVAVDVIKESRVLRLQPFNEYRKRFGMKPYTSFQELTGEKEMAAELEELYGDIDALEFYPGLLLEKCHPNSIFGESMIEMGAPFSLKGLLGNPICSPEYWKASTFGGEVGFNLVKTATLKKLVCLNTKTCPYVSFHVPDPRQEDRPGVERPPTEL
Test: Inhibition of ovine COX1 assessed as inhibition of 12-HHT formation measuring remaining activity preincubated at 10 uM for 5 mins before arachidonic acid addition by HPLC analysis
Entries and their measured Activity follow.

compound	Activity / %
COc1ccc2c(c1)c(CC(=O)NS(=O)(=O)c1ccc(C)cc1)c(C)n2C(=O)c1ccc(Cl)cc1	89.4
O=C(O)Cc1cn(-c2ccccc2)nc1-c1ccc(C#Cc2ccc(Cl)cc2)cc1	77.8
Cc1ccc(S(=O)(=O)NC(=O)Cc2cn(-c3ccccc3)nc2-c2ccc(-c3ccccc3)cc2)cc1	99.1
O=C(Cc1cn(-c2ccccc2)nc1-c1ccc(C#Cc2ccc(Cl)cc2)cc1)NS(=O)(=O)c1ccc(Cl)cc1	70.1
COc1ccc2c(c1)c(CC(=O)O)c(C)n2C(=O)c1ccc(Cl)cc1 [INDOMETHACIN]	23.3
Cc1ccc(S(=O)(=O)NC(=O)Cc2c(C)n(Cc3ccc(Cl)cc3)c3ccc(C#Cc4ccccc4)cc23)cc1	83.1
